The origin of these recorded values is PubChem BioAssay (NCATS).

Assay: Stat Signaling Pathway (AID 446);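 further: ME-180 cervical cancer cells given 40 pM IL-6 alongside compound; SIE-controlled beta-lactamase reporter measured as 460/530 nm FRET emission ratio; on the % scale 0 is the no-effect control and ±100 the full control effect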
Settings: ME-180 (cervical carcinoma) SIE beta-lactamase reporter, IL-6 stimulated, 5 h; at 7.69 µM (top of the series) unless noted
Inconclusive results are not listed.
Measured activity, negative = inhibition values are reported for all entries that follow.
READOUT TYPE: activity, negative = inhibition (%)

SMILES STRING | UNITS OF MEASURE | MEASURED VALUE
COc1ccccc1CNc1ncncc1-c1ccc(N(C)C)cc1 | % | -7.61
O=c1c(-c2ccc(Cl)cc2)nc2cncnc2n1Cc1ccccc1Cl | % | 13
O=c1c(-c2ccccc2)nc2cnc(Oc3cccc(Cl)c3)nc2n1C1CC1 | % | -5.81
O=C(Nc1ccccc1)N1CC[C@@]2(CCCN(C(=O)c3cc(C(F)(F)F)cc(C(F)(F)F)c3)C2)C1 | % | -6.2
O=C(c1cccc(F)c1)N1CCC2(CC1)CCN(c1ncccn1)CC2 | % | -11.5
COc1ccc2[nH]cc(CCNc3cc(-c4ccccc4Cl)ncn3)c2c1 | % | -11.7
